Tested on: XIP peptide (Xip251-270)
testDescription: small-molecule binders of XIP peptide, primary screen, biochemical, small-molecule microarray, fluorescence 635/667 nm, 0.5 µg/mL protein (AID 1183)
testSettings: small-molecule microarray binding, fluorescence 635 nm; higher = more signal
attributeMeasured: composite z-score
Form: value (number only, do not type unit).

Look over these answered cases.
[[record]]
compound = "C=CCOC(=O)[C@@H]1[C@H]2C(=O)O[C@H](c3ccccc3)[C@H](c3ccccc3)N2[C@H](c2ccc(OCCOC(=O)[C@H]3C[C@H]4C(=O)N[C@@H](CCCCN(C)C)C(=O)N4[C@H]3c3cccc(OCCO)c3)cc2)[C@@]12C(=O)Nc1ccc(I)cc12"
attributemeasured = "composite z-score"
datavalue = 0.817

[[record]]
compound = "NC(=O)N1C(=O)C2C(C1=O)C1C=C(c3ccc(CO)cc3)C2C(C2CC2)N1Cc1sc2ccccc2c1Cl (stereo not given)"
attributemeasured = "composite z-score"
datavalue = 0.726

[[record]]
compound = "COc1ccccc1CN1C(=O)c2ccccc2[C@@H](C(=O)NC(C)C)[C@@H]1c1ccc(CO)cc1"
attributemeasured = "composite z-score"
datavalue = 0.905


Input "COCCOC(=O)N1C(=O)[C@@]2(c3cc(C#CC4(O)CCCCCC4)ccc31)[C@H](C(=O)N1CCCCCCC1)[C@H]1C(=O)O[C@H](c3ccccc3)[C@H](c3ccccc3)N1[C@@H]2c1ccc(OCCO)cc1" . Output composite z-score: 0.838
